Molecular target: Pantothenate synthetase (Mycobacterium tuberculosis (strain ATCC 25618 / H37Rv)) (UniProt P9WIL5)
Sequence (P9WIL5 whole entry, looked up): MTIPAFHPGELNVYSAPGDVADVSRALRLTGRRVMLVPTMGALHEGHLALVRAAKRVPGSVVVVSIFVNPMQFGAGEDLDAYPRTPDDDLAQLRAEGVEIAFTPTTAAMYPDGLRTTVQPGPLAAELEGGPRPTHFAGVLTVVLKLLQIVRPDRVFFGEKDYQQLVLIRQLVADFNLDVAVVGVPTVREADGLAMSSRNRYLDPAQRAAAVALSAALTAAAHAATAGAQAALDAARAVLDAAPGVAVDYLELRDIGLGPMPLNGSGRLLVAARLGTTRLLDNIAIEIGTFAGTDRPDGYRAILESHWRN
Assay: Coupled enzyme confirmation of inhibitors against recombinant Mtb PanC (AID 375);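 note: 0% = full reaction with vehicle and 100% = no enzyme background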
Details: coupled enzyme assay; at 10 µM, active compounds read high

[
  {
    "Compound": "COc1cc([C@@H]2[C@H]3CN(C)CC=C3C(C#N)=C(N)C2(C#N)C#N)cc2c1OCO2",
    "inhibition (%)": 0
  },
  {
    "Compound": "CCC(=O)N1CCc2cc(Br)cc(S(=O)(=O)N3CCCCCC3)c21",
    "inhibition (%)": 0
  },
  {
    "Compound": "Cc1ccc(S(=O)(=O)N(CC(=O)NCc2ccco2)Cc2ccccc2F)cc1",
    "inhibition (%)": 0
  },
  {
    "Compound": "CN(C)C(CN1C(=O)C2CC=CCC2C1=O)c1cn(C)c2ccccc12 (stereo unspecified)",
    "inhibition (%)": 0
  },
  {
    "Compound": "O=C(CCNS(=O)(=O)c1ccc(Cl)cc1)NCc1ccccn1",
    "inhibition (%)": 0
  },
  {
    "Compound": "COc1ccc(S(=O)(=O)N2CCSC2c2ccccc2)cc1 (stereo unspecified)",
    "inhibition (%)": 1
  },
  {
    "Compound": "COC(=O)C1(C)NC(c2cccs2)C2C(=O)N(c3ccccc3F)C(=O)C21 (stereo unspecified)",
    "inhibition (%)": 0
  },
  {
    "Compound": "COc1ccc(C(=O)N(CCN2CCOCC2)CC(=O)NC2CCCC2)cc1OC",
    "inhibition (%)": 1
  },
  {
    "Compound": "CC1Cc2ccccc2N1C(=O)CSc1nc2ccccc2n1CC(=O)N1CCOCC1 (stereo unspecified)",
    "inhibition (%)": 0
  },
  {
    "Compound": "Cc1cc2ncn(C(=O)N3CCOCC3)c2cc1C",
    "inhibition (%)": 0
  },
  {
    "Compound": "COc1cccc(N2CCN(C(=O)C3C4C=CC5(CN(Cc6ccccc6Cl)C(=O)C35)O4)CC2)c1 (stereo unspecified)",
    "inhibition (%)": 0
  },
  {
    "Compound": "O=C1CCCC2=C1C(c1ccsc1)CC(=O)N2c1ccccc1 (stereo unspecified)",
    "inhibition (%)": 0
  },
  {
    "Compound": "CCCOc1ccccc1NC(=O)c1c(-c2ccccc2)noc1C",
    "inhibition (%)": 1
  },
  {
    "Compound": "COC(=O)C(CC(C)C)NC(=O)CSc1nc(-c2ccccc2)c(C#N)c(=O)[nH]1 (stereo unspecified)",
    "inhibition (%)": 0
  },
  {
    "Compound": "COc1ccc(NC(=O)Nc2ccccc2C)c(OC)c1",
    "inhibition (%)": 0
  },
  {
    "Compound": "COC(=O)c1ccc(Cl)c(NC(C)=O)c1",
    "inhibition (%)": 4
  },
  {
    "Compound": "Cc1nc2cccc(C(=O)NC3CCCCC3)c2o1",
    "inhibition (%)": 0
  },
  {
    "Compound": "CCCOc1ccc(C2c3c(oc4ccccc4c3=O)C(=O)N2CCCN2CCOCC2)cc1 (stereo unspecified)",
    "inhibition (%)": 4
  },
  {
    "Compound": "COc1ccc(C2CC(=O)C(C=NCCCN3CCOCC3)=C(O)C2)cc1 (stereo unspecified)",
    "inhibition (%)": 0
  },
  {
    "Compound": "CCOC(=O)N1CCN(C(=O)c2ccc(CS(=O)(=O)c3c(Cl)cccc3Cl)o2)CC1",
    "inhibition (%)": 0
  },
  {
    "Compound": "Nc1ccc(-n2c(N)c(C(=O)NCc3ccc4c(c3)OCO4)c3nc4ccccc4nc32)cc1",
    "inhibition (%)": 14
  },
  {
    "Compound": "CCOCCCNC(=O)CC1Oc2ccc(C)cc2NC1=O (stereo unspecified)",
    "inhibition (%)": 0
  },
  {
    "Compound": "CCCCn1c(CN2CCN(c3cccc(Cl)c3)CC2)nc2c1c(=O)n(C)c(=O)n2C",
    "inhibition (%)": 6
  },
  {
    "Compound": "CCOc1ccc2nc(NC(=O)C(NS(=O)(=O)c3cccs3)C(C)C)sc2c1 (stereo unspecified)",
    "inhibition (%)": 0
  },
  {
    "Compound": "Cc1ccc(C(=O)Nc2nc3c(s2)CCCC3)o1",
    "inhibition (%)": 2
  },
  {
    "Compound": "CCOC(=O)c1cc(CC)sc1NC(=O)CCC(=O)O",
    "inhibition (%)": 2
  },
  {
    "Compound": "Cn1c(CN2CCCCC2)nc2cc(NC(=O)c3ccccc3)ccc21",
    "inhibition (%)": 0
  },
  {
    "Compound": "CCCN(S(=O)(=O)c1ccc(OCC)cc1)S(=O)(=O)c1cccs1",
    "inhibition (%)": 0
  },
  {
    "Compound": "O=C(CSc1nnc(C2CC2)n1Cc1ccccc1)c1ccc(S(=O)(=O)N2CCOCC2)cc1",
    "inhibition (%)": 0
  },
  {
    "Compound": "COCC(=O)N(C)c1nnc(-c2ccccn2)s1",
    "inhibition (%)": 2
  },
  {
    "Compound": "CCN(CC)C1CCCCC1NS(=O)(=O)c1ccc(Cl)cc1 (stereo unspecified)",
    "inhibition (%)": 0
  },
  {
    "Compound": "CCOC(=O)c1[nH]c2ccc(Br)cc2c1NC(=O)CCN1CCC(C(=O)OCC)CC1",
    "inhibition (%)": 0
  },
  {
    "Compound": "COc1ccc(C2C(C(=O)N3CCC(C)CC3)c3ccccc3C(=O)N2C)cc1 (stereo unspecified)",
    "inhibition (%)": 0
  },
  {
    "Compound": "CCc1ccc(NC(=O)CSc2nnc(Cc3cccn3C)n2-c2ccc(OC)cc2)cc1",
    "inhibition (%)": 0
  },
  {
    "Compound": "COc1ccc(CCN2C(=O)CC(N3CCOCC3)C2=O)cc1 (stereo unspecified)",
    "inhibition (%)": 0
  },
  {
    "Compound": "Cc1ccc2nc(/C(C#N)=N/O)[nH]c2c1",
    "inhibition (%)": 10
  },
  {
    "Compound": "Cn1cc(C(=O)c2ccc(F)cc2)cc1-c1nc2ccccc2n1C",
    "inhibition (%)": 6
  },
  {
    "Compound": "Cc1noc(/C=C/N(C)C)c1S(=O)(=O)N1CCc2ccccc21",
    "inhibition (%)": 0
  },
  {
    "Compound": "O=c1sc(Nc2ccccc2)nc2ccsc12",
    "inhibition (%)": 0
  },
  {
    "Compound": "Cc1nc2c(c(=O)n1CC1CCCO1)c1nc3ccccc3nc1n2CC(C)C (stereo unspecified)",
    "inhibition (%)": 0
  },
  {
    "Compound": "O=C(O)Cc1ccccc1C(=O)O",
    "inhibition (%)": 0
  }
]

###

Target: Receptor tyrosine-protein kinase erbB-2 (Homo sapiens)
Assay: Her2 expression decrease, cell viability multiplex – SKBR3 breast tumor cells, AlphaScreen, ATP viability, primary screen (AID 461);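 note: lower value means less Her2 protein in the cells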
Settings: 18-24 h, at 10 µM, active compounds read low
Her2 level for assorted compounds
Property name: Her2 level (%)

[
  {
    "Compound": "O=C(CCCOc1ccc(Cl)cc1Cl)N1CCC2(CC1)OCCO2",
    "Val": 96.5
  },
  {
    "Compound": "CC(C)(C)OC(=O)c1c(N)n(Cc2ccco2)c2nc3ccccc3nc12",
    "Val": 76
  },
  {
    "Compound": "CCOC(=O)c1cccc([P+](=O)O)c1",
    "Val": 114
  },
  {
    "Compound": "COc1ccc(C(=O)C(C)(C)NO)cc1",
    "Val": 100
  },
  {
    "Compound": "CCOC(=O)C1CCCCC12C(C#N)=C(N)Oc1n[nH]c(C)c12 (stereo unspecified)",
    "Val": 94.5
  },
  {
    "Compound": "COc1ccc(C2NCc3ccc4c(c3-n3cccc32)OCO4)cc1O (stereo unspecified)",
    "Val": 73
  },
  {
    "Compound": "C=CCn1c(O)c(C=NCCN(C)C)c(=O)[nH]c1=O",
    "Val": 108
  },
  {
    "Compound": "O=C(c1ccc2nc3ccc(Cl)cc3c(=O)n2c1)N1CCC2(CC1)OCCO2",
    "Val": 91.5
  },
  {
    "Compound": "CC(C)OC(=O)c1c(N)n(CC2CCCO2)c2nc3ccccc3nc12 (stereo unspecified)",
    "Val": 92.5
  },
  {
    "Compound": "COC(=O)c1ccccc1-n1c(C)nc2ccccc2c1=O",
    "Val": 105
  },
  {
    "Compound": "OCC12COC3c4ccccc4C(OC1)N32 (stereo unspecified)",
    "Val": 118
  },
  {
    "Compound": "Oc1ccc(C2NCc3ccccc3-n3cccc32)cc1Cl (stereo unspecified)",
    "Val": 74.5
  },
  {
    "Compound": "O=C(c1sc2ccccc2c1Cl)N1CCC2(CC1)OCCO2",
    "Val": 136
  },
  {
    "Compound": "O=C(c1ccncc1)C12CN3CN(CN(C3)C1)C2",
    "Val": 114
  },
  {
    "Compound": "COc1ccc(N2CCN(CCCN)CC2)cc1",
    "Val": 88
  },
  {
    "Compound": "CCCCn1c(O)c(C=NC2CCCCC2N)c(=O)[nH]c1=O (stereo unspecified)",
    "Val": 96.5
  },
  {
    "Compound": "CC1(C)C(c2ccccc2)=NC(c2cccnc2)N1O (stereo unspecified)",
    "Val": 96
  },
  {
    "Compound": "O=C(c1ccc(CS(=O)(=O)c2ccccc2)o1)N1CCC2(CC1)OCCO2",
    "Val": 112
  },
  {
    "Compound": "CN1CCN(c2nc3ccccc3c(=O)n2-c2ccccc2)CC1",
    "Val": 104
  },
  {
    "Compound": "CC(C)=CCSc1nnc([C@@H](N)Cc2c[nH]c3ccccc23)o1",
    "Val": 110
  },
  {
    "Compound": "CCOc1ccc(-n2c(O)c(C=NCCN3CCNCC3)c(=O)[nH]c2=O)cc1",
    "Val": 77.5
  }
]
